- assay-comment: yeast display, Sf9 membrane polyspecificity reagent, FACS + sequencing; frameworks hold sequencing errors
quantity-measured: polyreactivity (PSR sort gate)

Please review the entries below; each comes with its answer.
What the record says about `QVQLVQSGGGLVQAGGSLSLSCAASVFIFYYYDMGWYIQAPGKERELVAAISGRDGSTYYADSVKGRFTISRDNAKNTVYLQMNSLKPEDTAVYYCAAANRSRSIGSQYGYWGQGTQVTVSS` : polyreactivity (PSR sort gate) is high polyreactivity

Short answer for `QVQLEESGGGLVQAGGSLRLSCAASGRTSLAYAKGWYRQAPGKERELVAGITSGGNTNYADSVKGRFTISRDNAKNTVYLQMNSLKPEDTAVYSCNKKKRWQWYSESVLVYLGFYSWGQGTQVTVSS` : polyreactivity (PSR sort gate) was low polyreactivity

Looking up `QVQLVDSGGGLVQAGGSLRLSCAASGFIFPINAMGWYRQAPGKERELVAAITGGGSTSYADSVKGRFTISRDNAKNTVYLQMNSLKPEDTAVYYCATDRLTYTKYGYWGQGTLVTVSS` , I see its polyreactivity (PSR sort gate) listed as low polyreactivity

get_value(item= `QVQLVESGGGLVQAGGSLRLSCAASGRTFYWNAMGWYRQAPGKERELVAAITRNGGSTYYADSVKGRFTISRDNAKNNVYLQMNSLKPEDTAVYYCAARKRYGAGYDYWGQGTQVTVSS` , readout=polyreactivity (PSR sort gate)) returns high polyreactivity

***
Noted for `QVQLVESGGGLVQAGGSLRLSCAASGRIFSPYAMGWYRQAPGKERELVATITSGGSTNYADSVKGRFTISRDNAKNTVYLQKNSLKPEDTAVYYCNAVYYSNPYYYSRVWQYYYWGQGTQVTVSS` : its polyreactivity (PSR sort gate) reads low polyreactivity

Looking up `QVQLEESGGGLVQAGGSLRLSCSASGLILHGYAMGWYRQAPGKERELVAAITRSGGRTYYADSVKGRFTISRDNAKYTVYLQMNSLKPEDTAVYYCAALGWSGRYRYDYWGQGTQVTVSS` , I see its polyreactivity (PSR sort gate) listed as high polyreactivity

Quick note, polyreactivity (PSR sort gate) for `QVQLVESGGGLVQAGGSLRLSCAASGFTFRWYAMGWYRQAPGKERELVAAITSDDNTYYADSVKGRFTISRDNAKNTVYLQMNSLKPEDTAVYYCAAEYADYWTYNMGYWGQGTQVTVSS` landed at low polyreactivity

For `QVQLVESGGGLVQAGGSLRLSCAASGIIFRVYTMGWYRQAPGKERELVAGISSGDSTSYADSVKGRFTISRDNAKNTVYLQMNSLKPEDTAVYYCNAVAYYSYSANFRNAYDYWGQGTQVTVSS` the sequence record lists polyreactivity (PSR sort gate) as low polyreactivity

Measured polyreactivity (PSR sort gate), `QVQLVESGGGLVQAGGSLRLSCAASGRIFDYYYMGWYRQAPGKERELVAAISNGGSTYYADSVKGRFTISRDNAKNTVYLQMNSLKPEDTAVYYGAAVISFSGYDYYYWGQGTQVTVSS` : high polyreactivity

Recorded result, `QVQLVESGGGLVQAGGSLRLSCAASGSIFAYYVMGWYRHAHGKERELVAAISARGGRTYYADSVKGRFTISRDNAKNTVYLQMNSLKQEDTAVYYCNALDQRYSQAVEYDYWGQGTQVTVSS` , polyreactivity (PSR sort gate): high polyreactivity

Recorded result, `QVQLVESGVGLVQAGGSLSLSCAATGRIFNSYMGWYRQAPGKERELDAAISWSSGTSTYYADSVKGRFTISRDNAKNTVYLQMNSLKPEDTAVYYCNADDYYGPYPEEYDYWGQGTQVTVSS` , polyreactivity (PSR sort gate): low polyreactivity
